Where do the numbers come from? From patent US4474780A.

- assayOverview: Solubility (saturated solution in water at 37° C.)
- Assay type: physicochemical
- conditionDescription: water, 37° C., pH 8.0
measuredEndpoint: solubility

>>> result("CC1=C(C(=O)O)N2C(=O)C(NC(=O)[C@H](N)c3ccc4ccccc4c3)C2SC1 (stereo partly shown)")
"4100 µg/mL"

---

- assayOverview: Solubility (saturated solution in water at 37° C.)
- Format: physicochemical
- conditionDescription: water, 37° C., pH 5.0
measuredEndpoint: solubility (µg/mL)

>>> quantitativeresult("CC1=C(C(=O)O)N2C(=O)C(NC(=O)[C@H](N)c3ccc4ccccc4c3)C2SC1 (stereo partly shown)")
200

---

- assayOverview: Titration (66% N,N-dimethylformamide/water)
- Type: physicochemical
- conditionDescription: 66% dmf/water, third value
measuredEndpoint: pKa

>>> quantitativeresult("CC1=C(C(=O)O)N2C(=O)C(NC(=O)[C@H](N)c3ccc4ccccc4c3)C2SC1 (stereo partly shown)")
11.2

---

- assayOverview: Solubility (saturated solution in water at 37° C.)
- Type: physicochemical
- conditionDescription: water, 37° C., pH 4.0
measuredEndpoint: solubility (µg/mL)

>>> quantitativeresult("CC1=C(C(=O)O)N2C(=O)C(NC(=O)[C@H](N)c3ccc4ccccc4c3)C2SC1 (stereo partly shown)")
200

---

- assayOverview: Titration (66% N,N-dimethylformamide/water)
- Type: physicochemical
- conditionDescription: 66% dmf/water, second value
measuredEndpoint: pKa

>>> quantitativeresult("CC1=C(C(=O)O)N2C(=O)C(NC(=O)[C@H](N)c3ccc4ccccc4c3)C2SC1 (stereo partly shown)")
7.5

---

- assayOverview: Solubility (saturated solution in water at 37° C.)
- Type: physicochemical
- conditionDescription: water, 37° C., pH 7.5
- Description: For example, the compound forms a saturated solution in water at 37° C. according to the following table: […]
measuredEndpoint: solubility (µg/mL)

>>> quantitativeresult("CC1=C(C(=O)O)N2C(=O)C(NC(=O)[C@H](N)c3ccc4ccccc4c3)C2SC1 (stereo partly shown)")
1200

---

- assayOverview: Solubility (saturated solution in water at 37° C.)
- Type: physicochemical
- conditionDescription: water, 37° C., pH 7.0
- Protocol: For example, the compound forms a saturated solution in water at 37° C. according to the following table: […]
measuredEndpoint: solubility

>>> result("CC1=C(C(=O)O)N2C(=O)C(NC(=O)[C@H](N)c3ccc4ccccc4c3)C2SC1 (stereo partly shown)")
"800 µg/mL"

---

- assayOverview: Titration (66% N,N-dimethylformamide/water)
- Type: physicochemical
- conditionDescription: 66% dmf/water, first value
measuredEndpoint: pKa

>>> quantitativeresult("CC1=C(C(=O)O)N2C(=O)C(NC(=O)[C@H](N)c3ccc4ccccc4c3)C2SC1 (stereo partly shown)")
5.5

---

- assayOverview: Solubility (saturated solution in water at 37° C.)
- Type: physicochemical
- conditionDescription: water, 37° C., pH 2.0
measuredEndpoint: solubility

>>> result("CC1=C(C(=O)O)N2C(=O)C(NC(=O)[C@H](N)c3ccc4ccccc4c3)C2SC1 (stereo partly shown)")
"1700 µg/mL"

---

- assayOverview: Solubility (saturated solution in water at 37° C.)
- Format: physicochemical
- conditionDescription: water, 37° C., pH 1.2
measuredEndpoint: solubility (mg/mL)

>>> quantitativeresult("CC1=C(C(=O)O)N2C(=O)C(NC(=O)[C@H](N)c3ccc4ccccc4c3)C2SC1 (stereo partly shown)")
8.6
